Each recorded value in this set is attributed to patent US9980948B2.

For each entry below, report its Emax value.
- experimental_target: Human AMPK α2β2γ1 (Homo sapiens, UniProt O43741+P54646)
- Construct: The full length cDNAs of human AMPK β2 (NM_005399.3) and human AMPK α2 (NM_006252.3); The full length cDNAs of human AMPK β2 (NM_005399.3); the full length cDNA of human AMPK γ1 (NM_002733.3) had been inserted into pET28b(+); 6xHis (N); made in house; host or cells: Escherichia coli BL21 CodonPlus (DE3)-RTL (AMPK); BL21 Star (DE3) (CaMKKβ)
- Sequence (P54646 whole entry): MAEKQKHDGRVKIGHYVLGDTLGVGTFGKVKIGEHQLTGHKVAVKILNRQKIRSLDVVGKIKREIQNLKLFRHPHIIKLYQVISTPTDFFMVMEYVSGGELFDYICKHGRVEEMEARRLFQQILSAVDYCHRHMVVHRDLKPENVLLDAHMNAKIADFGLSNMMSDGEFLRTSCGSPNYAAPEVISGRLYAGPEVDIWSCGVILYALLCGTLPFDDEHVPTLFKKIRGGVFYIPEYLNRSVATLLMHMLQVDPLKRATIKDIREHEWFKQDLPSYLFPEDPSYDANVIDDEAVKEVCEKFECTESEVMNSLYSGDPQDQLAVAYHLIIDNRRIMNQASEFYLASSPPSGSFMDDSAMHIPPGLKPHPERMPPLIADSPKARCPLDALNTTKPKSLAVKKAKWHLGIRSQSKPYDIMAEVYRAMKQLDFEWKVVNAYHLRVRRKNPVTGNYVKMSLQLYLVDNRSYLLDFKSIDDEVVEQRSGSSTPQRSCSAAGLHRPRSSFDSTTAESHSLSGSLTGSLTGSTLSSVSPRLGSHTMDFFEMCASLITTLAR
- Sequence (O43741 whole entry): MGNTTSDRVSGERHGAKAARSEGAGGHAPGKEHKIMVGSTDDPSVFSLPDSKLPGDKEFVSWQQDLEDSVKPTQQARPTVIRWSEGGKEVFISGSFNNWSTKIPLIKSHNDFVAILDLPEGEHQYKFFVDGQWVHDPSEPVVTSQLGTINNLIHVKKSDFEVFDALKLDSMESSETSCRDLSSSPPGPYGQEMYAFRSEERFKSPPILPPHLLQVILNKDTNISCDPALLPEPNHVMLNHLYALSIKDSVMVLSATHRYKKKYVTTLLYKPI
- Sequence (P54619 whole entry partner): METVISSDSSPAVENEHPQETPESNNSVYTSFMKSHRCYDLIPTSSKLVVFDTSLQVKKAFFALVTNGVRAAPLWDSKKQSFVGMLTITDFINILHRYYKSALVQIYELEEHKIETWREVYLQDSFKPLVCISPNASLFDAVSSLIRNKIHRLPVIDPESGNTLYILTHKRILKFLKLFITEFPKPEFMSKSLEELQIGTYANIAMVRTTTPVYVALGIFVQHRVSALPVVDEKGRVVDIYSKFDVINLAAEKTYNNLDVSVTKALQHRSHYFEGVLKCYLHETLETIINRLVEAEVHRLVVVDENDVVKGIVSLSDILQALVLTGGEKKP
- assay_explanation: Test Example 2: evaluation of an activator for AMP-activated protein kinase (AMPK), human AMPK α2β2γ1 phosphorylated with CaMKK2, FL-Peptide 7 mobility shift
- Assay type: biochemical
- condition_context: human AMPK α2β2γ1, relative to control (100%); read-out: Emax (maximum rate of increase in activity within the measurement range)
Mention the unit after the number when you answer.

Please review the entries below; each comes with its answer.
Emax reading for `N#Cc1c(O[C@@H]2CO[C@H]3[C@@H]2OC[C@H]3O)[nH]c2cc(Cl)c(-c3ccc(C4=CCN(C(=O)CO)CC4)cc3)nc12` : 779%

Emax reading for `O[C@@H]1CO[C@H]2[C@@H]1OC[C@H]2Oc1cc2nc(-c3ccc([C@@H]4C[C@@H](O)[C@@H](O)CO4)cc3)c(Cl)cc2[nH]1` : 442%

Emax reading for `NC(=O)Nc1ccc(-c2ccc(-c3nc4cc(O[C@@H]5CO[C@H]6[C@@H]5OC[C@H]6O)[nH]c4cc3F)cc2)cc1` : 518%

Please look at the items below and tell me Emax for each one, in order.
1. CC(C)(C(=O)O)[C@H]1CC[C@H](Oc2cc3nc(-c4c(F)cc(N5CCOCC5)cc4F)c(Cl)cc3[nH]2)CC1
2. CN=S(C)(=O)c1ccc(-c2ccc(-c3nc4cc(O[C@@H]5CO[C@H]6[C@@H]5OC[C@H]6O)[nH]c4cc3F)cc2)cc1 (stereo partly drawn)
3. O[C@@H]1CO[C@H]2[C@@H]1OC[C@H]2Oc1cc2nc(-c3ccsc3)c(F)cc2[nH]1
4. CC(C)(C(=O)O)[C@H]1CC[C@H](Oc2cc3nc(-c4ccc(N5CC[C@@H](O)C5)cc4)c(Cl)cc3[nH]2)CC1
5. Cn1c(-c2nc3cc(O[C@@H]4CO[C@H]5[C@@H]4OC[C@H]5O)[nH]c3cc2F)cc2ccccc21
6. O=C(CO)N1CC=C(c2ccc(-c3nc4cc(O[C@@H]5CO[C@H]6[C@@H]5OC[C@H]6O)[nH]c4cc3F)cc2)CC1
7. CS(=O)(=NCCO)c1ccc(-c2ccc(-c3nc4cc(O[C@@H]5CO[C@H]6[C@@H]5OC[C@H]6O)[nH]c4cc3F)cc2)cc1 (stereo partly drawn)
8. N#Cc1c(O[C@@H]2CO[C@H]3[C@@H]2OC[C@H]3O)[nH]c2cc(Cl)c(-c3ccc(-c4ccc(-n5cncn5)cc4)cc3)nc12

["204%", "510%", "315%", "302%", "511%", "827%", "674%", "836%"]

Emax reading for CN=S(C)(=O)c1ccc(-c2ccc(-c3nc4cc(O[C@@H]5CO[C@H]6[C@@H]5OC[C@H]6O)[nH]c4cc3C(F)(F)F)cc2)cc1 (stereo partly drawn) : 598%
